- TARGET_OF_ASSAY: Enoyl-[acyl-carrier-protein] reductase [NADH] (Mycobacterium tuberculosis, UniProt P9WGR1)
- Sequence (P9WGR1 whole entry): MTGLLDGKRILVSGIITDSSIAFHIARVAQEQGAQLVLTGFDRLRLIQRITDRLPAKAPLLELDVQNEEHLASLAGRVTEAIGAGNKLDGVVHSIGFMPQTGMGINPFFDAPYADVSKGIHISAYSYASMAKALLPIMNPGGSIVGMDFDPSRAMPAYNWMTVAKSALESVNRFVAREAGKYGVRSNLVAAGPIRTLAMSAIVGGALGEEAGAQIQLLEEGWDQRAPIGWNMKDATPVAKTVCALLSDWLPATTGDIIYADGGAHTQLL
pKi: −log10 of the molar value.
ENDPOINT: pKi

>  <COMPOUND_STRUCTURE>
N#Cc1cc(-c2ccc(C(=O)O)o2)cc(C(F)(F)F)c1

>  <RECORDED_NUMBER>
5.05

$$$$

====

Reported Ki values are given for each entry in this list.
- TARGET_OF_ASSAY: Trehalose monomycolate exporter MmpL3 (Mycolicibacterium smegmatis)
- Sequence (A0QP27 whole entry): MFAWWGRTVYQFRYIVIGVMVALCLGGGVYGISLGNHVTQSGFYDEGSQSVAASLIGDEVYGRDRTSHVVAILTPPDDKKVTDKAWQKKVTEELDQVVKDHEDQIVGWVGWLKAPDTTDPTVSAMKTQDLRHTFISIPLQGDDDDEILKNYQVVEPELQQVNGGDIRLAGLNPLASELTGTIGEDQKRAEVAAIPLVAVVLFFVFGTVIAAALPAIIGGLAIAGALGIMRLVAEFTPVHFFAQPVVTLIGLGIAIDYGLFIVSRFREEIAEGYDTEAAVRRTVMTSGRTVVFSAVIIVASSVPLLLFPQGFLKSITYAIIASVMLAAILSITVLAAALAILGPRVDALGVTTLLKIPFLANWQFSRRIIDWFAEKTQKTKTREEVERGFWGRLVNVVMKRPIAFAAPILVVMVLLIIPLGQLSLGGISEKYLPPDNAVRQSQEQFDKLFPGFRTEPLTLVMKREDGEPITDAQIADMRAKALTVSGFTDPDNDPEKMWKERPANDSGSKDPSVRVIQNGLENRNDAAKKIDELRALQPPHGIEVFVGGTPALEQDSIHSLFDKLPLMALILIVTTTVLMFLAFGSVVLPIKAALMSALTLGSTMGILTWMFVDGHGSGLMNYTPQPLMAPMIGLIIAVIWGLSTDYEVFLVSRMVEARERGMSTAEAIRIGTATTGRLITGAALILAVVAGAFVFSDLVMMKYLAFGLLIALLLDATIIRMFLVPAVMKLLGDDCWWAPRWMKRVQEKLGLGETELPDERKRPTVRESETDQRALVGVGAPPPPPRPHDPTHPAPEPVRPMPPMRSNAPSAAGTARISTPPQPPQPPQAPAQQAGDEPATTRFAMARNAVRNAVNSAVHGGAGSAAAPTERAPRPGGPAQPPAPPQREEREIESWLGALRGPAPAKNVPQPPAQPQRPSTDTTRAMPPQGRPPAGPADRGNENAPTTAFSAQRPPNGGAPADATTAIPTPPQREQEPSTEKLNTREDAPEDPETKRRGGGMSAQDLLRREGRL
ENDPOINT: Ki (nM)

>  <COMPOUND_STRUCTURE>
COc1ncnc2c1ncn2[C@@H]1O[C@H](CNS(=O)(=O)NC(=O)c2ccccc2O)[C@@H](O)[C@H]1O

>  <ENDPOINT>
Ki

>  <READOUT_UNITS>
nM

>  <RECORDED_NUMBER>
277

$$$$
>  <COMPOUND_STRUCTURE>
CN(C[C@H]1O[C@@H](n2cnc3c(N)ncnc32)[C@H](O)[C@@H]1O)S(=O)(=O)NC(=O)c1ccccc1O

>  <ENDPOINT>
Ki

>  <READOUT_UNITS>
nM

>  <RECORDED_NUMBER>
159

$$$$
